For each record, write down the corresponding TGI.
Tested on: DMS 273 small cell lung
Assay: NCI tumour cell line growth inhibition, 48 h
Could you give me the number in µM? Just the number is fine.

query: Read off the recorded TGI for O=c1c2cccc3cccc(c4oc5c6cccc7cccc(c(=O)c5c14)c76)c32
result: 17.9

query: Read off the recorded TGI for C/C([O-])=C1\Cc2ccccc2C1=O.C/C([O-])=C1\Cc2ccccc2C1=O.CC[O-].CC[O-].[Ti+4]
result: 31.4

query: Read off the recorded TGI for C=C(C)C(=O)OC1CC2=CC(CC3(C)OC3C3OC(=O)C(=C)C13)OC2=O (stereo not given)
result: 28.3

query: Read off the recorded TGI for O=C1/C(=C/c2ccc3c(c2)OCO3)CCC1CN1CCOCC1 (stereo not given)
result: 25.3

---

For each record, write down the corresponding TGI.
Test system: M14 melanoma
Experiment: NCI tumour cell line growth inhibition, 48 h

query: Read off the recorded TGI for C=C(C)[C@@H]1CC[C@]2(C(=O)NCCNCCNCCN)CC[C@]3(C)[C@H](CC[C@@H]4[C@@]5(C)CC[C@H](O)C(C)(C)[C@@H]5CC[C@]43C)[C@@H]12
result: 28.7 µM

query: Read off the recorded TGI for C=C[C@H]1CC[C@H]2[C@@H]3CC=C4C[C@@H](OC5OCC(O)C(O)C5O)CC[C@]4(C)[C@H]3CC[C@]12C (stereo partly drawn)
result: 40.9 µM

query: Read off the recorded TGI for Cc1cc(NC(=O)NC(=O)c2ccccc2N)ccc1Oc1ncc(Br)cn1
result: > 31.2 µM

query: Read off the recorded TGI for N#Cc1c(-c2ccc(Cl)cc2)c(C#N)c(=O)n(NS(=O)(=O)c2ccccc2)c1S
result: > 100 µM

query: Read off the recorded TGI for O=C1Nc2ccccc2C1Cc1ccc([N+](=O)[O-])cc1 (stereo not drawn)
result: > 100 µM

query: Read off the recorded TGI for Nc1ccc(C(=O)NN2C(=O)C(Cl)C2c2cc(Br)ccc2O)cc1 (stereo not drawn)
result: > 100 µM

query: Read off the recorded TGI for COC(=O)C12OC(C)(C(CC(=O)OC(C)(C)C)C1=O)C1C(=O)N(c3ccccc3)C(=O)C12 (stereo not drawn)
result: > 100 µM

query: Read off the recorded TGI for O=c1[nH]c(=O)n(COCCO)c2ccc(Br)cc12
result: > 100 µM

query: Read off the recorded TGI for Cc1ccc2c(c1C)-c1c(ccc(C)c1C)C(=O)C2=O
result: 2.12 µM

query: Read off the recorded TGI for COc1cc2c3c(n(CCCNCC(OC)OC)c(=O)c2cc1OC)-c1cc2c(cc1C3=O)OCO2
result: > 37.2 µM

query: Read off the recorded TGI for COc1ccn2c(C(C)=O)cc(C(=O)c3ccc4c(c3)Sc3ccccc3N4)c2c1
result: > 100 µM

query: Read off the recorded TGI for COc1ccc(C/C(C)=C(\c2ccc(OCCN3CCOCC3)cc2)c2ccc(OC(=O)Cc3ccccc3)cc2)cc1
result: 1.19 µM

query: Read off the recorded TGI for COc1ccc(Cc2c(N)[nH]c(=O)n(C)c2=O)cc1
result: > 100 µM

query: Read off the recorded TGI for C=CC(C)(C)C(=C)C(=O)N(C)c1ccccc1I
result: > 100 µM

query: Read off the recorded TGI for CC1CC2C(=O)N(c3ccccc3)C(=O)C2c2c1c1ccccc1n2Cc1ccccc1 (stereo not drawn)
result: > 100 µM

query: Read off the recorded TGI for CCc1cccc2c3c(sc12)C(c1ccc(Cl)cc1)C(C#N)=C(N)O3 (stereo not drawn)
result: 4.79 µM

query: Read off the recorded TGI for N#CCC(=O)c1cc(OCc2cc(OCc3ccc(Br)cc3)cc(OCc3ccc(Br)cc3)c2)cc(OCc2cc(OCc3ccc(Br)cc3)cc(OCc3ccc(Br)cc3)c2)c1
result: > 100 µM

query: Read off the recorded TGI for CCC(CC)n1cc(C(=O)NC(=O)NCCCCCOC(=O)CCCCCCCCCCC(=O)OCCCCCNC(=O)NC(=O)c2cn(C(CC)CC)c(=O)[nH]c2=O)c(=O)[nH]c1=O
result: > 100 µM
